Assay: In vitro microsomal stability assay
Details: human, microsomes, NADPH-free T1/2, Human
attribute.measured: half-life at 1 μM

Give its half-life at 1 μM value. Item: O=C(C[n+]1cn(Cc2cccc(Cn3c[n+](CC(=O)c4ccc([N+](=O)[O-])cc4)c4ccccc43)n2)c2ccccc21)c1ccc([N+](=O)[O-])cc1.[Br-].[Br-] [Compound 6f]
> 3 h

----------
Biological target: CYP2C8 (Homo sapiens)
Sequence (P10632 whole entry): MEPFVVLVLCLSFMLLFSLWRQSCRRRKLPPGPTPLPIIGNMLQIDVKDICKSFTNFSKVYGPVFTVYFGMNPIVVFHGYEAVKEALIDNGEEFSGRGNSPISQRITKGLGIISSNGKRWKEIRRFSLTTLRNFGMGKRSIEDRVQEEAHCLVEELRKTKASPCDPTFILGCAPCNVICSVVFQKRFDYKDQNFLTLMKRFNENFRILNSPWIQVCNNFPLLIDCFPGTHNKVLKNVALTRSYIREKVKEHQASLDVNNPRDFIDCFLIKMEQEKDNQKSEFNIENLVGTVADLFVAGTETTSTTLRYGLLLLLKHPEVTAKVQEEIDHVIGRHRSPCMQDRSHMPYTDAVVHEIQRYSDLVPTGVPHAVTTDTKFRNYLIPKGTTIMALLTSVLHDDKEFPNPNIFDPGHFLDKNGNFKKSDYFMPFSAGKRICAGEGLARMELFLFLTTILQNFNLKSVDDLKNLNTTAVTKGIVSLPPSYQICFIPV
attribute.measured: IC50

Any idea what IC50 came out for O=C(C[n+]1cn(Cc2cccc(Cn3c[n+](CC(=O)c4ccc([N+](=O)[O-])cc4)c4ccccc43)n2)c2ccccc21)c1ccc([N+](=O)[O-])cc1.[Br-].[Br-] on CYP2C8 (Homo sapiens)?
> 20 µM

----------
Experiment: in vitro
Conditions: human
Below, each entry is listed alongside its reported recovery.
Please answer using the number first and the unit second.

molecule	recovery
O=C(C[n+]1cn(Cc2cccc(Cn3c[n+](CC(=O)c4ccc([N+](=O)[O-])cc4)c4ccccc43)n2)c2ccccc21)c1ccc([N+](=O)[O-])cc1.[Br-].[Br-] [Compound 6f]	24.5%

Okay, next one:
Endpoint output: recovery of CC(C)NCC(O)COc1cccc2ccccc12 (centres unmarked) [Propranolol, reference compound] . Value?
93%

----------
Biological target: UniProtKB P20813
Sequence (P20813 whole entry): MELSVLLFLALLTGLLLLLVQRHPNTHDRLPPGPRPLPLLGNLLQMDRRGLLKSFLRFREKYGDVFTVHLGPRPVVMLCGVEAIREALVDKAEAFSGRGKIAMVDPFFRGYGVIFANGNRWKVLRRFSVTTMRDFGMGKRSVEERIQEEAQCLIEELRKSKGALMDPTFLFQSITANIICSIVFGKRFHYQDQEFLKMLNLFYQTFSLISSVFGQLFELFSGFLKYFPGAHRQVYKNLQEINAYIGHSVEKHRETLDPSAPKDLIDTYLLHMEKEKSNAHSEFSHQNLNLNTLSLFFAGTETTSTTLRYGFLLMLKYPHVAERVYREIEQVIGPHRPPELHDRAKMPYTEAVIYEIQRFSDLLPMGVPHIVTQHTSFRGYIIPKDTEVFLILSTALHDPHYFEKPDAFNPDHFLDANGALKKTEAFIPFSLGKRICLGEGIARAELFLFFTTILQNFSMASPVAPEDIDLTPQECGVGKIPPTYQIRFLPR
pIC50: −log10 of the molar value.
attribute.measured: pIC50

Give pIC50 (UniProtKB P20813) of the following compound: O=C(C[n+]1cn(Cc2cccc(Cn3c[n+](CC(=O)c4ccc([N+](=O)[O-])cc4)c4ccccc43)n2)c2ccccc21)c1ccc([N+](=O)[O-])cc1.[Br-].[Br-] [Compound 6f]
< 4.70

----------
Experiment: In vitro microsomal stability assay
Conditions: human, microsomes, NADPH-free CLint
attribute.measured: microsomal CLint at 1 μM

I'd like to know its microsomal CLint at 1 μM. The molecule in question is O=C(C[n+]1cn(Cc2cccc(Cn3c[n+](CC(=O)c4ccc([N+](=O)[O-])cc4)c4ccccc43)n2)c2ccccc21)c1ccc([N+](=O)[O-])cc1.[Br-].[Br-] [Compound 6f]
< 12.8 µL/min/mg

----------
System: Mtb H37Rv
Assay: Secondary assay: MIC, IC50 and IC90 repeated at lower starting concentrations
Type: cell-based
Settings: Mycobacterium tuberculosis
Below: a set of entries, each annotated with reported IC50.
Report the figure in µM without appending any unit label.

Consider the worked cases shown below.
compound	experimental.system	IC50 (µM)
O=C(C[n+]1cn(Cc2cccc(Cn3c[n+](CC(=O)c4ccc([N+](=O)[O-])cc4)c4ccccc43)n2)c2ccccc21)c1ccc([N+](=O)[O-])cc1.[Br-].[Br-]	Mtb H37Rv	11
O=C(C[n+]1ccn(Cc2cccc(Cn3cc[n+](CC(=O)c4ccc([N+](=O)[O-])cc4)c3)n2)c1)c1ccc([N+](=O)[O-])cc1.[Br-].[Br-]	Mtb H37Rv	45
O=C(C[n+]1cn(Cc2cccc(Cn3c[n+](CC(=O)c4ccccc4)c4ccccc43)n2)c2ccccc21)c1ccccc1.[Br-].[Br-]	Mtb H37Rv	34
O=[N+]([O-])c1cn(Cc2cccc(Cn3cnc([N+](=O)[O-])c3)n2)cn1	Mtb H37Rv	93

Any idea what its IC50 is? The compound is CO[C@H]1/C=C/O[C@@]2(C)Oc3c(C)c(O)c4c(O)c(c(/C=N/N5CCN(C)CC5)c(O)c4c3C2=O)NC(=O)/C(C)=C\C=C\[C@H](C)[C@H](O)[C@@H](C)[C@@H](O)[C@@H](C)[C@H](OC(C)=O)[C@@H]1C [Rifampicin, reference compound]
0.004
